I'd be grateful if you could share measured gMFIr Human CD8+ T cells for these entries.
Target: T1, human PVRIG on cells (human, UniProt Q6DKI7 1-326)
T1 construct: whole, on cells; over-expressed on HEK cells or endogenous on Jurkat and CD8 T cells; also called hPVRIG; HEK hPVRIG cells
T1 sequence (looked up): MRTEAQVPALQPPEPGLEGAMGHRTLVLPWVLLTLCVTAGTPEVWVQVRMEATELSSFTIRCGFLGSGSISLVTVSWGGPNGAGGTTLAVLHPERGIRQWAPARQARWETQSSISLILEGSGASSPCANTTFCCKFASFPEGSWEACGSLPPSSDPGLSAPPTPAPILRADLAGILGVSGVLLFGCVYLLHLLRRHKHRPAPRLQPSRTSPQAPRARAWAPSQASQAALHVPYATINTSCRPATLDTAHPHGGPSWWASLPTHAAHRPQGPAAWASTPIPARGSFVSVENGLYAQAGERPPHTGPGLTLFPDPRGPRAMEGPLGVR
Assay: FACS, human PBMC, CD8+ T cells, 10ug/ml
Answers are plain numbers.

Provide gMFIr Human CD8+ T cells for all items below, preserving their order.
1. CHA.7.512 (antibody, V domains shown) VH: QIQLVQSGPELKKPRETVKISCKASGYTFTDYSMHWVKQAPGKGLKWMGWINTETGEPTYADDFKGRFAFSLEASASSAYLQINILKDEDTATYFCARSRGGYYEDYYALDYWGQGTSVTVSS VL: DIQMTQSPASLSASVGESVTITCRASGNIHYYLAWYQQKQGKSPQLLVYNAKNLADGVPSRFSGSGSGTQFSLKINSLQPEDFGSYYCQHFWISPPTFGGGTKLEIK
2. CHA.7.503 (antibody, V domains shown) VH: QVQLQQSGAELAKPGASVKMSCKASGYTFTSNWMHWVKQRPGQGLEWIGYINPSNGYTECNQKFRDKATLSADKSSSTAYMQLNSLTSADSAVYYCALMISAWLPYWGQGTLVTVSA VL: DIVLTQSPASLAISLGQRATISCRASQSVSASSYSYVHWYQQKPGQPPKLLIKYASSLESGVPARFSGSGSGTDFTLNIHPVEEEDTATYYCLHTWEIPYTFGGGTKLEIK

result:
1: 1.15; 2: 1.96
